- Tested on: NCI-H226 lung
- ASSAY_DETAILS: NCI-60 one-dose screen, 48 h (100 = growth as untreated, 0 = no growth, -100 = all killed)
- APPLIED_CONDITIONS: 10 µM unless noted
About 83,000 compounds went through this panel and 20% of them were active in at least one assay; those are over-represented in the sample as a whole.
Mark each entry label 1 if its growth sits below 80%, and label 0 for all others.

INSERT INTO assay_data (molecule, category_label) VALUES
  ('O=C(Nc1nc2ccccc2s1)c1ccc(F)cc1', 'label 0'),
  ('OCCn1cc(-c2nc(-c3c[nH]c4ncccc34)cs2)c2ccccc21', 'label 1'),
  ('O=C1c2c(c3c4ccccc4[nH]c3c3ccc4ccccc4c23)C(=O)N1CCN1CCNCC1', 'label 1'),
  ('CCN(CC)c1ccc(\C=N/N=C(N)/C(N)=N\N=C/c2ccc(N(CC)CC)cc2)cc1', 'label 0'),
  ('NC(Cc1ccc(O)c([N+](=O)[O-])c1)C(=O)O (stereo not given)', 'label 0');
